# measurementDescription: Electronic tongue analysis (Taste-Sensing System SA 402B)
# Set-up: unit not given here
# conditionLabel: sensor GL1, peptide 1 mg/mL, reference solution 30 mM KCl + 0.3 mM tartaric acid as baseline, detection threshold 0, room temperature, measured five times, first measurement excluded
Ends that are not written are not given here.
# Sweet annotations
measurementType: Sweet

# substance, measurementType, measValue
rows = [
    ("DQKVLA [TaPep3]", "Sweet", -6.65),
    ("FTEELE [TaPep32]", "Sweet", -6.23),
    ("TAEQVA [TaPep33]", "Sweet", -5.32),
    ("VPDELN [TaPep23]", "Sweet", -4.58),
    ("EQPLQA [TaPep21]", "Sweet", -10.15),
    ("EPDDPDD [TaPep27]", "Sweet", -6.25),
    ("HIDELDE [TaPep22]", "Sweet", -4.86),
    ("NNDDEES [TaPep50]", "Sweet", -3.07),
    ("IAVPHEP [TaPep47]", "Sweet", -5.60),
    ("SVLEFS [TaPep52]", "Sweet", -1.51),
    ("SNDPVA [TaPep71]", "Sweet", -5.65),
    ("DAELDK [TaPep34]", "Sweet", -6.74),
    ("TDPELV [TaPep60]", "Sweet", -9.69),
    ("VARLEA [TaPep9]", "Sweet", -4.48),
    ("YDGTPLN [TaPep11]", "Sweet", -5.23),
    ("PPLENT [TaPep39]", "Sweet", -7.82),
    ("KNDESVD [TaPep48]", "Sweet", -3.88),
    ("LGDDLVK [TaPep19]", "Sweet", -4.08),
    ("SLEYEFK [TaPep38]", "Sweet", -5.11),
    ("APEELDA [TaPep36]", "Sweet", -8.13),
    ("LQPSLEH [TaPep59]", "Sweet", -7.32),
    ("NGDDEEG [TaPep7]", "Sweet", -6.18),
    ("PTELESD [TaPep41]", "Sweet", -8.94),
    ("EVGMQE [TaPep56]", "Sweet", -7.49),
    ("EDGPHGD [TaPep45]", "Sweet", -4.05),
    ("TIDDELR [TaPep26]", "Sweet", -3.99),
    ("LWGPVT [TaPep72]", "Sweet", -5.31),
    ("LQDVVE [TaPep24]", "Sweet", -4.08),
    ("SLEYLP [TaPep35]", "Sweet", -7.23),
    ("AKDEKEL [TaPep1]", "Sweet", -3.13),
    ("DFKEELPK [TaPep42]", "Sweet", -6.66),
    ("FPEQQD [TaPep16]", "Sweet", -5.75),
    ("EEVPITD [TaPep46]", "Sweet", -3.59),
]

====

# Average cell viability, HEK293T annotations
# Test system: human embryonic kidney cells (HEK293T)
Ends that are not written are not given here.
measurementType: Average cell viability, HEK293T

# substance, experimentalTarget, measValue
measured = [
    ("DAELDK [TaPep34]", "human embryonic kidney cells (HEK293T)", 101.89),
    ("EPKVLV [TaPep54]", "human embryonic kidney cells (HEK293T)", 102.24),
    ("TDPELV [TaPep60]", "human embryonic kidney cells (HEK293T)", 103.06),
    ("VPDELN [TaPep23]", "human embryonic kidney cells (HEK293T)", 90.54),
    ("PPLENT [TaPep39]", "human embryonic kidney cells (HEK293T)", 100.06),
    ("HIDELDE [TaPep22]", "human embryonic kidney cells (HEK293T)", 98.23),
    ("SNDPVA [TaPep71]", "human embryonic kidney cells (HEK293T)", 97.98),
    ("HGGDDLG [TaPep28]", "human embryonic kidney cells (HEK293T)", 97.67),
    ("YQAENKH [TaPep14]", "human embryonic kidney cells (HEK293T)", 98.23),
    ("FEGDQDA [TaPep18]", "human embryonic kidney cells (HEK293T)", 103.66),
    ("STGTIR [TaPep51]", "human embryonic kidney cells (HEK293T)", 100.60),
    ("SVLEFS [TaPep52]", "human embryonic kidney cells (HEK293T)", 99.31),
    ("AEDNSL [TaPep43]", "human embryonic kidney cells (HEK293T)", 98.86),
    ("EDGPHGD [TaPep45]", "human embryonic kidney cells (HEK293T)", 97.35),
    ("NGDDEEG [TaPep7]", "human embryonic kidney cells (HEK293T)", 95.11),
    ("AKDEKEL [TaPep1]", "human embryonic kidney cells (HEK293T)", 101.23),
    ("KADGNR [TaPep4]", "human embryonic kidney cells (HEK293T)", 102.74),
]

The measured values listed here are drawn from paper PMC12543283.
